- System: A549
- assayProcedure: NCI tumour cell line growth inhibition, 48 h
The source made the active and inactive calls. No stated cut-off is given here; in the data, active = GI50 up to about 1.1 µM and inactive = higher.
Labels: active, inactive

[
  {
    "molecule": "C/C(=C\\c1ccccc1)C(O)C(=O)c1nc2ccc(Cl)cc2nc1O (stereo unspecified)",
    "assignedClass": "inactive"
  },
  {
    "molecule": "COc1ccc(/C=N/C23CC4CC(CC(C4)C2)C3)cc1",
    "assignedClass": "inactive"
  },
  {
    "molecule": "c1ccc(N2N=C(c3ccco3)CC2c2ccco2)cc1 (stereo unspecified)",
    "assignedClass": "inactive"
  },
  {
    "molecule": "Cc1ccc2c(c1)Nc1ccccc1P2(=O)O",
    "assignedClass": "inactive"
  },
  {
    "molecule": "COc1ccc(N2C(=O)C(C#N)=C(SC)C(C#N)C2=O)cc1 (stereo unspecified)",
    "assignedClass": "inactive"
  },
  {
    "molecule": "N#Cc1cccc(/C=N/C23CC4CC(CC(C4)C2)C3)c1",
    "assignedClass": "inactive"
  },
  {
    "molecule": "O=C1OC2(C(F)(F)F)Oc3ccccc3CN2C12CCCCC2 (stereo unspecified)",
    "assignedClass": "inactive"
  },
  {
    "molecule": "COc1cccc(-c2cc(=O)c3cc(N4CCCCC4)ccc3[nH]2)c1",
    "assignedClass": "active"
  },
  {
    "molecule": "O=C1C=C(Nc2ccccc2C(=O)CC(=O)C(=O)Nc2ccc(Cl)c(Cl)c2)c2ccccc2C1=O",
    "assignedClass": "inactive"
  },
  {
    "molecule": "CCCCCCCCCCCCCCCC(=O)OCC1OC(OC)C2NP(=O)(N(CCCl)CCCl)OC1C2O (stereo unspecified)",
    "assignedClass": "inactive"
  },
  {
    "molecule": "O=c1c2c(F)c(F)c(F)c(F)c2sc2nccn12",
    "assignedClass": "inactive"
  }
]

====

- Test system: UACC-257
- assayProcedure: NCI tumour cell line growth inhibition, 48 h
Active and inactive are the calls of the source. Cut-off read from the data, not from the text of the source: active = GI50 up to about 1.1 µM and inactive = higher.

[
  {
    "compound": "CNC(=O)OCC1C2=C(C(=O)C(C)=C(N)C2=O)N2CC3C(N3C)C12OC (stereo not given)",
    "GI50": "21.4 µM (inactive)"
  },
  {
    "compound": "CON1C(=O)C2(CCCCC2)C(=O)C12C=CC(C)CC2 (stereo not given)",
    "GI50": "69.8 µM (inactive)"
  },
  {
    "compound": "CC(C)(C)C1CCC2c3c([nH]c4ccccc34)C3C(=O)N(c4ccc(C#N)cc4)C(=O)C3C2C1 (stereo not given)",
    "GI50": "20.2 µM (inactive)"
  },
  {
    "compound": "CSC(=S)OC1C(CO[Si](C)(C)C(C)(C)C)OC2OC(C)(C)OC21 (stereo not given)",
    "GI50": "17.1 µM (inactive)"
  },
  {
    "compound": "COc1ccc2c([nH]c3c(O)c(-c4c(C)cc5c([nH]c6c(CC=C(C)C)c(OC)ccc65)c4O)c(C)cc32)c1CC=C(C)C [BISMURRAYAFOLINE B]",
    "GI50": "> 100 µM (inactive)"
  },
  {
    "compound": "COc1cccc(N2C(=O)CSC2c2c[nH]c3ccccc23)c1 (stereo not given)",
    "GI50": "> 100 µM (inactive)"
  },
  {
    "compound": "COC(=O)c1c(C)[nH]c2c1cc(O)c1nc(C)c(C)nc12",
    "GI50": "> 100 µM (inactive)"
  },
  {
    "compound": "COc1cc2c[n+](C)c3c4cc(OC)c(OC)cc4ccc3c2cc1OC",
    "GI50": "> 100 µM (inactive)"
  },
  {
    "compound": "CCSc1c2cc(OC)ccc2nc2ccc(OC)cc12",
    "GI50": "9.98 µM (inactive)"
  },
  {
    "compound": "C=C1C(=O)OCC2C(C(=O)O)=CC3C(C)C(C)=CC123 (stereo not given)",
    "GI50": "16.7 µM (inactive)"
  },
  {
    "compound": "COc1ccc(S(=O)(=O)N/N=C/c2cc(I)cc([N+](=O)[O-])c2O)cc1OC",
    "GI50": "39 µM (inactive)"
  },
  {
    "compound": "COc1cc(/C=C2\\N=C(c3ccccc3)N(c3ccc(S(=O)(=O)Nc4nccs4)cc3)C2=O)ccc1O",
    "GI50": "> 100 µM (inactive)"
  },
  {
    "compound": "COC1=CC(=O)C(C2(OC(C)C)OC(=O)C(Cl)=C2Cl)=CC1=O (stereo not given)",
    "GI50": "> 100 µM (inactive)"
  },
  {
    "compound": "CCC1=NC(CO)[C@H](c2ccccc2)O1 (stereo not given in full)",
    "GI50": "> 100 µM (inactive)"
  },
  {
    "compound": "COC(=O)N(C(=O)OC)C(C(=O)O)C(C)C (stereo not given)",
    "GI50": "> 100 µM (inactive)"
  }
]

====

- Tested on: SF-268
- assayProcedure: NCI tumour cell line growth inhibition, 48 h
Activity calls are given as the source filed them. Cut-off read from the data, not from the text of the source: active = GI50 up to about 1.1 µM and inactive = higher.
measureName: GI50

[
  {
    "molecule": "NC(=O)N/N=C(\\C(=O)C(=O)Nc1ccc(Cl)c(C(F)(F)F)c1)c1nc2ccc(C(=O)c3ccccc3)cc2nc1O",
    "readoutValue": "70.3 µM (inactive)"
  },
  {
    "molecule": "COc1ccc(N2C=Nn3c(nc4sc(C)c(C)c4c3=O)C2)cc1",
    "readoutValue": "> 100 µM (inactive)"
  },
  {
    "molecule": "CC1CN(C(=O)CN2CCC(CCCCN(C)C)CC2)c2ccccc2NC1=O (centres undefined)",
    "readoutValue": "> 100 µM (inactive)"
  },
  {
    "molecule": "COC(=O)[C@@H](NC1(c2ccccc2)c2ccccc2-c2ccccc21)[C@H](OC(=O)[C@H]1CCCN1S(=O)(=O)c1ccccc1)C(=O)OC",
    "readoutValue": "> 100 µM (inactive)"
  }
]

====

Overview of recorded GI50 for various compounds
- Tested on: OVCAR-5
- assayProcedure: NCI tumour cell line growth inhibition, 48 h
Activity calls are given as the source filed them. No stated cut-off is given here; in the data, active = GI50 up to about 1.1 µM and inactive = higher.

[
  {
    "compound": "CCC(C#N)NCc1cccc(CNC(C#N)CC)c1 (configuration not stated)",
    "systemTested": "OVCAR-5",
    "GI50": "20 µM (inactive)"
  },
  {
    "compound": "CC(C)=C1C(=O)C[C@]2(C)C[C@H]3/C(=C(/C)CCC12)CC[C@@]3(C)O (some centres not stated)",
    "systemTested": "OVCAR-5",
    "GI50": "> 50 µM (inactive)"
  },
  {
    "compound": "O=C(/C=C/c1ccc(O)cc1)OC[C@@H](O)COC1OC(CO)C(O)C(O)C1O (some centres not stated)",
    "systemTested": "OVCAR-5",
    "GI50": "> 100 µM (inactive)"
  },
  {
    "compound": "C=C1C(=O)O[C@H]2C3OC3(C)CC/C=C(/C(=O)OC)[C@@H](OC(C)=O)[C@H](OC(=O)C3(C)OC3C)[C@H]12 (some centres not stated)",
    "systemTested": "OVCAR-5",
    "GI50": "2.94 µM (inactive)"
  },
  {
    "compound": "O=C(c1ccco1)C1CC(c2ccc3ccccc3c2O)=NN1 (configuration not stated)",
    "systemTested": "OVCAR-5",
    "GI50": "> 100 µM (inactive)"
  },
  {
    "compound": "CCCCn1c(C)c(C(=O)CC)c(C(=O)NCCN2CCN(c3ccccc3Cl)CC2)c1C",
    "systemTested": "OVCAR-5",
    "GI50": "17.5 µM (inactive)"
  },
  {
    "compound": "O=S1(=O)OCCOS(=O)(=O)C1C1c2ccccc2-c2ccccc21",
    "systemTested": "OVCAR-5",
    "GI50": "72.3 µM (inactive)"
  },
  {
    "compound": "COc1ccc(C2=CC3CCC2C3)cc1 (configuration not stated)",
    "systemTested": "OVCAR-5",
    "GI50": "> 100 µM (inactive)"
  },
  {
    "compound": "ClC1=C(Cc2ccccc2)Cc2ccc3c(c21)CCC3",
    "systemTested": "OVCAR-5",
    "GI50": "61.2 µM (inactive)"
  },
  {
    "compound": "O=C(/C(=N/Nc1ccccc1)c1ccc([N+](=O)[O-])cc1)c1ccc([N+](=O)[O-])cc1",
    "systemTested": "OVCAR-5",
    "GI50": "> 100 µM (inactive)"
  },
  {
    "compound": "Cc1cccc(NC(=O)/C=C/c2ccc(N(CCC#N)CCC#N)cc2C)c1",
    "systemTested": "OVCAR-5",
    "GI50": "> 100 µM (inactive)"
  },
  {
    "compound": "c1ccc(N2N=C(c3ccco3)CC2c2ccco2)cc1 (configuration not stated)",
    "systemTested": "OVCAR-5",
    "GI50": "> 100 µM (inactive)"
  },
  {
    "compound": "COc1ccc(C)cc1C1CCC(=O)O1 (configuration not stated)",
    "systemTested": "OVCAR-5",
    "GI50": "> 100 µM (inactive)"
  },
  {
    "compound": "CCOc1ccc(NC(=O)/C(=C\\c2ccc(C)cc2)C(C)=O)cc1",
    "systemTested": "OVCAR-5",
    "GI50": "> 100 µM (inactive)"
  },
  {
    "compound": "CCNC(=O)Nc1cccc(NC(=O)NCC)n1",
    "systemTested": "OVCAR-5",
    "GI50": "> 100 µM (inactive)"
  },
  {
    "compound": "NCc1cccc(O)c1O",
    "systemTested": "OVCAR-5",
    "GI50": "> 100 µM (inactive)"
  },
  {
    "compound": "O=C1C2Cc3ccccc3CN2C(=O)N1CN1CCN(CN2C(=O)C3Cc4ccccc4CN3C2=O)CC1 (configuration not stated)",
    "systemTested": "OVCAR-5",
    "GI50": "> 100 µM (inactive)"
  },
  {
    "compound": "O=C(Nc1ccc2c(c1)oc(=O)c1ccccc12)C(Cl)Cl",
    "systemTested": "OVCAR-5",
    "GI50": "> 100 µM (inactive)"
  },
  {
    "compound": "COC(=O)N(C(=O)OC)C(C(=O)O)C(C)C (configuration not stated)",
    "systemTested": "OVCAR-5",
    "GI50": "> 100 µM (inactive)"
  },
  {
    "compound": "CCC1CCN/C(=N/S(=O)(=O)c2cc(C)c(Cl)cc2S)N1 (configuration not stated)",
    "systemTested": "OVCAR-5",
    "GI50": "22.3 µM (inactive)"
  },
  {
    "compound": "O=[N+]([O-])C(/C=C(\\Cl)[N+](=O)[O-])=C(N1CCOCC1)N1CCOCC1",
    "systemTested": "OVCAR-5",
    "GI50": "21.2 µM (inactive)"
  },
  {
    "compound": "COc1cccc2c1C(=O)c1c(O)c3c(c(O)c1C2=O)CC(O)(C(C)=O)CC3O (configuration not stated)",
    "systemTested": "OVCAR-5",
    "GI50": "10.5 µM (inactive)"
  }
]

Attribution: ChEMBL document CHEMBL1201862
